Biological target: tyrosyl-DNA phosphodiesterase 2 (TDP2) (Homo sapiens, UniProt O95551)
Construct: made in house; host or cells: E. coli
Sequence (O95551 1-362): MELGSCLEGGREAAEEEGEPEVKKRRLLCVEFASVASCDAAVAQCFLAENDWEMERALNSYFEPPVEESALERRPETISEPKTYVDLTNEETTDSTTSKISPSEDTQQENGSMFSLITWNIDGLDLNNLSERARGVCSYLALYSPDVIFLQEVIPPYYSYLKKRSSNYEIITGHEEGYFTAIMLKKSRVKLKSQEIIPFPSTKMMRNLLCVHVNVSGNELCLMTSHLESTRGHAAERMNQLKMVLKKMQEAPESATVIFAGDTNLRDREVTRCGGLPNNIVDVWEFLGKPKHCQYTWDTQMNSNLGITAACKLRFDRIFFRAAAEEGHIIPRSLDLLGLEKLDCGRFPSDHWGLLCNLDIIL
Assay: TDP2 activity, removal of 5′-tyrosine from oligonucleotide substrate, denaturing PAGE
Format: biochemical
Settings: inhibitor 500 μM, TDP2 200 nM, substrate 100 nM, 10 min, 37 °C; mean ± SD; read-out: TDP2 % of residual activity (500 μM)
Record form. Attribute: remaining activity at 500 µM. Fill in for each entry.
One number for each entry, in %.

The cases that follow already have their remaining activity at 500 µM on record.
| compound | target-entity | unit-spec | remaining activity at 500 µM |
| --- | --- | --- | --- |
| CN1CCN(c2ccc3nc(-c4ccc5nc(CNC(=O)CCCN6CCN(CCCC(=O)NCc7nc8ccc(-c9nc%10ccc(N%11CCN(C)CC%11)cc%10[nH]9)cc8[nH]7)CC6)[nH]c5c4)[nH]c3c2)CC1 [DB2P(3)] | tyrosyl-DNA phosphodiesterase 2 (TDP2) (Homo sapiens, UniProt O95551) | % | 36 |
| CN1CCN(c2ccc3nc(-c4ccc5nc(-c6ccc7nc(CNC(=O)CCCCCC(=O)NCc8nc9ccc(-c%10nc%11ccc(-c%12nc%13ccc(N%14CCN(C)CC%14)cc%13[nH]%12)cc%11[nH]%10)cc9[nH]8)[nH]c7c6)[nH]c5c4)[nH]c3c2)CC1 [DB3(5)] | tyrosyl-DNA phosphodiesterase 2 (TDP2) (Homo sapiens, UniProt O95551) | % | 65 |

Hey, quick one: what's remaining activity at 500 µM for each of these?
1. CN1CCN(c2ccc3nc(-c4ccc5nc(CNC(=O)CN6CCN(CC(=O)NCc7nc8ccc(-c9nc%10ccc(N%11CCN(C)CC%11)cc%10[nH]9)cc8[nH]7)CC6)[nH]c5c4)[nH]c3c2)CC1 [DB2P(1)]
2. CCCn1cc(NC(=O)CC(=O)Nc2cc(-c3nc4ccc(-c5nc6ccc(N7CCN(C)CC7)cc6[nH]5)cc4[nH]3)n(CCC)c2)cc1-c1nc2ccc(-c3nc4ccc(N5CCN(C)CC5)cc4[nH]3)cc2[nH]1 [DB2Py(1)]

Result:
66
55

Query: Given the entry CN1CCN(c2ccc3nc(-c4ccc5nc(-c6ccc7nc(CNC(=O)CC(=O)NCc8nc9ccc(-c%10nc%11ccc(-c%12nc%13ccc(N%14CCN(C)CC%14)cc%13[nH]%12)cc%11[nH]%10)cc9[nH]8)[nH]c7c6)[nH]c5c4)[nH]c3c2)CC1 [DB3(1)] , report its measured remaining activity at 500 µM.
Result: 70

----------
System: poly(ADP-ribose) polymerase 2 (PARP2)
Assay: PARP2 auto-poly(ADP-ribosyl)ation with [32P]-NAD+
Assay type: biochemical, human
Settings: compound 500 μM, PARP2 600 nM, 0.6 mM [32P]-NAD+, 5 min, 37 °C; mean ± SD
Text: Recombinant human proteins tyrosyl-DNA phosphodiesterase 1 (TDP1) and tyrosyl-DNA phosphodiesterase 2 (TDP2) were expressed in the E. coli system, poly(ADP-ribose) polymerase 1 (PARP1) and poly(ADP-ribose) polymerase 2 (PARP2) were expressed in insect cells using a baculovirus expression system and purified as described in (Sukhanova et al., 2004; Sherstyuk et al., 2019; Dyrkheeva et al., 2020, 2021). Determination of PARP1 and PARP2 activity. […]
readout: PARP2 % of residual activity (500 μM)

| molecule | target-entity | readout | result |
| --- | --- | --- | --- |
| CN1CCN(c2ccc3nc(-c4ccc5nc(-c6ccc7nc(CNC(=O)CC(=O)NCc8nc9ccc(-c%10nc%11ccc(-c%12nc%13ccc(N%14CCN(C)CC%14)cc%13[nH]%12)cc%11[nH]%10)cc9[nH]8)[nH]c7c6)[nH]c5c4)[nH]c3c2)CC1 [DB3(1)] | poly(ADP-ribose) polymerase 2 (PARP2) | PARP2 % of residual activity (500 μM) | ~ 100% |
| CN1CCN(c2ccc3nc(-c4ccc5nc(-c6ccc7nc(CN)[nH]c7c6)[nH]c5c4)[nH]c3c2)CC1 [MB3] | poly(ADP-ribose) polymerase 2 (PARP2) | PARP2 % of residual activity (500 μM) | ~ 100% |

Hey, quick one: what's PARP2 % of residual activity (500 μM) for each of these?
1. CN1CCN(c2ccc3nc(-c4ccc5nc(CNC(=O)CCCCN6CCN(CCCCC(=O)NCc7nc8ccc(-c9nc%10ccc(N%11CCN(C)CC%11)cc%10[nH]9)cc8[nH]7)CC6)[nH]c5c4)[nH]c3c2)CC1 [DB2P(4)]
2. CN1CCN(c2ccc3nc(-c4ccc5nc(CNC(=O)CN6CCN(CC(=O)NCc7nc8ccc(-c9nc%10ccc(N%11CCN(C)CC%11)cc%10[nH]9)cc8[nH]7)CC6)[nH]c5c4)[nH]c3c2)CC1 [DB2P(1)]
3. CN1CCN(c2ccc3nc(-c4ccc5nc(-c6ccc7nc(CNC(=O)CCN8CCN(CCC(=O)NCc9nc%10ccc(-c%11nc%12ccc(-c%13nc%14ccc(N%15CCN(C)CC%15)cc%14[nH]%13)cc%12[nH]%11)cc%10[nH]9)CC8)[nH]c7c6)[nH]c5c4)[nH]c3c2)CC1 [DB3P(2)]

Result:
85 ± 13%
~ 100%
~ 100%

Where these numbers come from: paper PMC12799362
